FYI, the data here is from patent US7115750B1.

Listed next: entries and their corresponding melting point.

Answered examples (4):
# MOLECULE, melting point
rows = [
    ("O=C(Nc1ccc2c(c1)CCC(CN1CCCC1)=C2)c1ccc(-c2ccccc2)cc1", "176 to 177 °C"),
    ("CN(C)CC1CCc2cc(NC(=O)c3ccc(-c4ccc(C5=NC(C)(C)CO5)cc4)cc3)ccc2C1 (stereo not drawn)", "185 to 187 °C"),
    ("Cc1cc(C(=O)Nc2ccc3c(c2)CCC(CN(C)C)C3)ccc1-c1ccc(Cl)cc1 (stereo not drawn)", "193 to 195 °C"),
    ("CN(C)CC1CCc2cc(NC(=O)c3cc4ccccc4[nH]3)ccc2C1 (stereo not drawn)", "190 to 192 °C"),
]

Prompt line: Respond only with melting point recorded for CN(C)CC1CCc2cc(NC(=O)c3ccc(-c4ccc(C#N)cc4)cc3)ccc2C1 (stereo not drawn)
Response line: 183 to 185 °C

Prompt line: Respond only with melting point recorded for CN(C)CC1=Cc2ncc(NC(=O)c3ccc(-c4ccccc4)cc3)cc2CC1
Response line: 202 to 203 °C

* * *

Listed next: entries and their corresponding melting point.

# COMPOUND, melting point
measured = [
    ("CN(C)CCNC(=O)Cc1ccc(NC(=O)c2ccc3c(c2)S(=O)(=O)c2ccccc2C3=O)cc1", "162 to 163 °C (dec.)"),
    ("Cc1cc(-c2ccc(Cl)cc2)ccc1C(=O)Nc1ccc2c(c1)CCC(CN(C)C)C2 (stereo not drawn)", "163 to 165 °C"),
    ("CN(C)CC1=Cc2ccc(NC(=O)c3ccc(-c4ccccc4)cc3)cc2C1 (hydrate or solvate)", "187 to 189 °C"),
    ("CN(C)CC1=Cc2ccc(NC(=O)c3ccc(-c4ccc(Cl)cc4)cc3)cc2C1", "218 to 220 °C"),
    ("CC1=C(CN2CCCC2)CCc2cc(NC(=O)c3ccc(-c4ccccc4)nc3)ccc21", "178 to 179 °C"),
]

Prompt line: Respond only with melting point recorded for O=C(Nc1ccc2c(c1)CCC(CN1CCCC1)=C2)N1CCN(c2ccc(F)cc2)CC1
Response line: 179 to 181 °C

Prompt line: Respond only with melting point recorded for CN(C)CC1CCc2cc(NC(=O)c3ccc(-c4cccs4)cc3)ccc2C1 (stereo not drawn)
Response line: 165 to 166 °C

Prompt line: Respond only with melting point recorded for CN(C)CC1CCc2cc(NC(=O)c3ccc(-c4ccc5c(c4)OCO5)cc3)ccc2C1 (stereo not drawn)
Response line: 174 to 176 °C

Prompt line: Respond only with melting point recorded for O=C(Nc1ccc2c(c1)CCC(CN1CCCC1)=C2)c1ccc(-c2ccc(F)cc2)cc1
Response line: 189 to 192 °C

Prompt line: Respond only with melting point recorded for CN(C)CC1CCc2cc(NC(=O)c3ccc(-c4ccc([O-])cc4)cc3)ccc2C1.[Na+] (stereo not drawn)
Response line: 246 to 248 °C

Prompt line: Respond only with melting point recorded for CN(C)CC1CCc2cc(NC(=O)c3ccc(NC(=O)Nc4ccccc4)cc3)ccc2C1 (stereo not drawn)
Response line: 216 to 217 °C (dec.)

Prompt line: Respond only with melting point recorded for COc1ccc(-c2ccc(C(=O)Nc3ccc4c(c3)CCC(CN3CCCC3)=C4C)cn2)cc1
Response line: 165 to 167 °C

Prompt line: Respond only with melting point recorded for CN(C)CC1CCc2cc(NC(=O)c3ccc(C(=O)c4ccccc4)cc3)ccc2C1 (stereo not drawn)
Response line: 193 to 196 °C

Prompt line: Respond only with melting point recorded for CN(C)CC1CCc2cc(NC(=O)c3ccc(-c4ccc(C(=O)O)cc4)cc3)ccc2C1 (stereo not drawn)
Response line: 143 °C (dec.)

Prompt line: Respond only with melting point recorded for CN(C)CC1CCc2cc(NS(=O)(=O)c3ccc(-c4ccccc4)cc3)ccc2C1.Cl (stereo not drawn)
Response line: 168 to 170 °C

* * *

Listed next: entries and their corresponding melting point.

Answered examples (3):
# COMPOUND, VALUE KIND, RESULT
rows = [
    ("CN(C)CC1CCc2cc(NC(=O)c3ccc(N4C(=O)c5ccccc5C4=O)cc3)ccc2C1 (stereo not shown)", "melting point", "235 to 240 °C"),
    ("CN(C)CC1CCc2cc(NC(=O)c3ccc(-c4ccc(Cl)cc4)cc3Cl)ccc2C1 (stereo not shown)", "melting point", "177 to 179 °C"),
    ("CN(C)CC1CCCc2cc(NC(=O)c3ccc(-c4ccc(F)cc4)cc3)ccc2C1 (stereo not shown)", "melting point", "167 to 169 °C"),
]

Prompt line: Respond only with melting point recorded for CN(C)CC1CCc2cc(NC(=O)c3ccc(-c4ccc(N(C)C)cc4)cc3)ccc2C1 (stereo not shown)
Response line: 212 to 213 °C

Prompt line: Respond only with melting point recorded for CC1=C(CN2CCCC2)CCc2cc(NC(=O)c3ccc(-c4ccc(C)cc4)nc3)ccc21
Response line: 175 to 176 °C

Prompt line: Respond only with melting point recorded for CN(C)CC1=Cc2ncc(NC(=O)c3ccc(-c4ccc(Cl)cc4)cc3)cc2CC1
Response line: 220 to 222 °C

Prompt line: Respond only with melting point recorded for Cl.O=C(Nc1ccc(CC2CCCNC2)cc1)c1ccc(-c2ccc(F)cc2)cc1 (stereo not shown)
Response line: 205 °C (dec.)

* * *

VALUE KIND: melting point

Answered examples (4):
# COMPOUND, melting point
data = [
    ("O=C(Nc1ccc2c(c1)CCC(CN1CCCC1)=C2)N1CC=C(c2ccc(Cl)cc2)CC1 [Example 159]", "217 to 218 °C"),
    ("Cc1cc(C(=O)Nc2ccc3c(c2)CCC(CN(C)C)C3)ccc1Br (centres unmarked) [Example 25]", "154 to 155 °C"),
    ("CN(C)CC1=Cc2ccc(NC(=O)c3ccc(-c4ccc(Cl)cc4)cc3)cc2CC1 [Example 41]", "204 to 207 °C"),
    ("CCCc1ccc(-c2ccc(C(=O)Nc3ccc4c(c3)CCC(CN(C)C)C4)cc2)cc1 (centres unmarked) [Example 22]", "186 to 188 °C"),
]

Prompt line: Respond only with melting point recorded for CN(C)CC1=Cc2ccc(NC(=O)c3ccc(-c4ccc(F)cc4F)nc3)cc2CC1 [Example 152]
Response line: 162 to 163 °C

* * *

Listed next: entries and their corresponding melting point.

Answered examples (5):
# COMPOUND, RESULT
measured = [
    ("CN(C)CCC1=Cc2ccc(NC(=O)c3ccc(-c4ccccc4)cc3)cc2CC1", "148 to 150 °C"),
    ("Cc1ccc(-c2ccc(C(=O)Nc3ccc4c(c3)CCC(CN(C)C)=C4)cc2)cc1", "195 to 196 °C"),
    ("CN(C)CC1Cc2ccc(NC(=O)c3ccc(-c4ccc(Cl)cc4)cc3)cc2C1 (centres unmarked)", "192 to 194 °C"),
    ("O=C(Nc1ccc2c(c1)CCC(CN1CCCC1)C2)c1ccc(-c2ccccc2)cc1 (centres unmarked)", "144 to 146 °C"),
    ("CN(C)CC1=Cc2ccc(NC(=O)c3ccc(-c4ccc(Cl)cc4)nc3)cc2CC1", "248 to 249 °C"),
]

Prompt line: Respond only with melting point recorded for CN(C)CC1=Cc2ccc(NC(=O)CNC(=O)c3ccc(Cl)cc3)cc2CC1
Response line: 168 to 171 °C

Prompt line: Respond only with melting point recorded for CC1=C(CN2CCCC2)CCc2cc(NC(=O)c3ccc(-c4ccc(F)cc4)cc3)ccc21
Response line: 199 to 201 °C

Prompt line: Respond only with melting point recorded for COc1ccc(-c2ccc(C(=O)Nc3ccc4c(c3)CCC(CN3CCCC3)=C4C)cc2)cc1
Response line: 179 to 180 °C

* * *

Listed next: entries and their corresponding melting point.

Answered examples (5):
# COMPOUND, melting point
rows = [
    ("CN(C)CCNC(=O)Cc1ccc(NC(=O)CCCc2nc(-c3cc4ccccc4o3)no2)cc1", "161 to 163 °C"),
    ("CN(C)CCNC(=O)Cc1ccc(NC(=O)Cc2ccccc2Cc2ccccc2)cc1", "115 to 117 °C"),
    ("Cl.O=C(Nc1ccc(C(=O)C2CCCNC2)cc1)c1ccc(-c2ccc(Cl)cc2)cc1 (stereo not drawn)", "222 to 225 °C (dec.)"),
    ("CN(C)CC1CCc2cc(NC(=O)c3ccc(-c4ccc(NC(=O)C(F)(F)F)cc4)cc3)ccc2C1 (stereo not drawn)", "235 to 237 °C"),
    ("CSc1ccc(-c2ccc(C(=O)Nc3ccc4c(c3)CCC(CN(C)C)C4)cc2)cc1 (stereo not drawn)", "178 to 180 °C"),
]

Prompt line: Respond only with melting point recorded for O=C(Nc1ccc2c(c1)CCC(CCN1CCCC1)=C2)c1ccc(-c2ccc(Cl)cc2)cc1
Response line: 207 to 209 °C

Prompt line: Respond only with melting point recorded for CN(C)CCNC(=O)Cc1ccc(NC(=O)c2ccc(NC(=O)c3ccccc3)cc2)cc1
Response line: 220 to 221 °C

Prompt line: Respond only with melting point recorded for Cc1ccc(C2CCN(C(=O)Nc3ccc4c(c3)CCC(CN(C)C)=C4)CC2)cc1
Response line: 200 to 202 °C

Prompt line: Respond only with melting point recorded for O=C(Nc1ccc2c(c1)CCC(CN1CCCC1)=C2)N1CCC(c2ccc(Cl)cc2)CC1
Response line: 194 to 195 °C

Prompt line: Respond only with melting point recorded for O=C(Nc1ccc2c(c1)CCC(CCN1CCCC1)=C2)c1ccc(-c2ccccc2)cc1
Response line: 184 to 186 °C

Prompt line: Respond only with melting point recorded for CN(C)CC1CCc2cc(NC(=O)c3ccc(-c4ccc(Cl)c(Cl)c4)cc3)ccc2C1 (stereo not drawn)
Response line: 143 to 145 °C

Prompt line: Respond only with melting point recorded for CC1=C(CN2CCCC2)CCc2cc(NC(=O)N3CCC(c4ccc(C)cc4)CC3)ccc21
Response line: 159 to 160 °C

Prompt line: Respond only with melting point recorded for CN(C)CC1CCc2cc(NC(=O)c3ccc(-c4ccccc4)cc3)ccc2C1 (stereo not drawn)
Response line: 164 to 166 °C

Prompt line: Respond only with melting point recorded for COc1ccc(-c2ccc(C(=O)Nc3ccc4c(c3)CCC(CN3CCCC3)=C4)cc2)cc1
Response line: 187 to 188 °C

Prompt line: Respond only with melting point recorded for CN(C)CC1CCc2cc(NC(=O)c3ccc(-c4ccc(C(F)(F)F)cc4)cc3)ccc2C1 (stereo not drawn)
Response line: 205 to 206 °C

Prompt line: Respond only with melting point recorded for CN(C)CC1CCc2cc(NC(=O)c3ccc(C(=O)Nc4ccccc4)cc3)ccc2C1 (stereo not drawn)
Response line: 238 to 240 °C (dec.)

Prompt line: Respond only with melting point recorded for CN(C)CCNC(=O)Cc1ccc(NC(=O)c2ccc(OCc3ccccc3)cc2)cc1
Response line: 190 to 192 °C (dec.)

Prompt line: Respond only with melting point recorded for O=C(NCCN1CCCCC1)c1ccc(NC(=O)c2ccc(-c3ccccc3)cc2)cc1
Response line: 247 to 252 °C (dec.)

Prompt line: Respond only with melting point recorded for CN(C)CC1COc2cc(NC(=O)c3ccc(-c4ccc(F)cc4F)cc3)ccc2O1 (stereo not drawn)
Response line: 209 to 210 °C
